System: MDA-MB-231 breast
PROCEDURE SUMMARY: NCI tumour cell line growth inhibition, 48 h
QUANTITY MEASURED: log10 of TGI (log10 of the value in µM)
Could you please treat all values as log10 of TGI in µM?

Value of measured log10 of TGI for the entry `COC(=O)N[C@H]1CCc2c(Cl)c(OC)c(OC)c(OC)c2-c2ccc(SC)c(=O)cc21` : 1.08

In plain terms, `CCOC(=O)[C@@H](Cc1ccc(CCl)cc1)NC(C)=O` has a documented log10 of TGI of 1.91

The compound listed as `C=C1C[C@@H]2O[C@H]3[C@H]4[C@@H](C[C@@H](C)[C@@H](OC(C)=O)[C@H]42)[C@@H](C)CO[C@@]3(C)[C@H](OC(=O)CCCCCCC)CC1=O` shows log10 of TGI equal to 1.56

More entries:
log10 of TGI reading for `C=C(C)[C@H]1CC23C(=O)[C@@](C)(C[C@H]2C1(C)C)C(=O)C(C(=O)C(C)C)=C3O` : 1.51

Given item `C[N+](C)=c1ccc2nc3c(cc(NCCCNc4cc5oc6cc(=[N+](C)C)ccc-6nc5c5ccccc45)c4ccccc43)oc-2c1` , the value recorded as its log10 of TGI is 0.68

So, `CNC(=S)N1CCN(C(C)=O)C1=S` ? Its log10 of TGI was 1.20

----------
Tested on: HOP-18 NSCLC
PROCEDURE SUMMARY: NCI tumour cell line growth inhibition, 48 h
QUANTITY MEASURED: TGI

Field: example entries. Status: answers known.
Item `COc1cc(C(=O)c2cocc2C(=O)c2ccc3c(c2)OCO3)cc(OC)c1OC` was tested on HOP-18 NSCLC; the reported TGI is > 100 µM

Form field, TGI with HOP-18 NSCLC, item `CC(=O)Oc1ccc2c(c1)C(=O)c1nc(C)c(C)nc1C2=O` : > 100 µM

The compound `C[C@H]1C=C2C(=O)O[C@H]3CC[C@@H](C1)[C@@]23O` , when measured on HOP-18 NSCLC, yielded TGI of 13.4 µM

# TGI measured on HOP-18 NSCLC for item `CC(C)(C)N=NC(C)(C)N=C=O` = > 100 µM

Item COc1ccc([C@@H]2OC(=O)C3C2C(=O)O[C@H]3c2ccc(OC)c(OC)c2)cc1OC (stereo partly specified) was tested on HOP-18 NSCLC; the reported TGI is > 100 µM

Let's switch to this compound now.
Form field, TGI with HOP-18 NSCLC, item CC1=CCCC2C(C=O)(C1)CC(C)C2(CO)CC/C(=C/CO)CO (stereo unspecified) : > 100 µM

----------
Tested on: SF-268 CNS
PROCEDURE SUMMARY: NCI tumour cell line growth inhibition, 48 h
Recorded TGI, one value per entry.
Give just the numeric value; µM need not be written.

GET /values?item= `CC(=N/NC(=S)N(C)C)/C(=N\NC(=S)N(C)C)c1ccccc1` &system= SF-268 CNS returns TGI: 4.84

Known value: SF-268 CNS TGI of the compound `O=C([C@H](O)[C@@H](O)c1cccc(Cl)c1)C12CC3CC(CC(C3)C1)C2` equals 4.04

Now consider a different compound.
Here `CC[PH+](CC)CC.[Cl][Au]` was tested on SF-268 CNS, and its TGI came to 3.35
